Recorded values, source patent US10961215B2.

Biological target: GST tagged LXRalpha LBD (ligand binding domain) (Homo sapiens, UniProt Q13133)
Construct: purchased Invitrogen pv4655
Sequence (Q13133 209-447 limits assumed): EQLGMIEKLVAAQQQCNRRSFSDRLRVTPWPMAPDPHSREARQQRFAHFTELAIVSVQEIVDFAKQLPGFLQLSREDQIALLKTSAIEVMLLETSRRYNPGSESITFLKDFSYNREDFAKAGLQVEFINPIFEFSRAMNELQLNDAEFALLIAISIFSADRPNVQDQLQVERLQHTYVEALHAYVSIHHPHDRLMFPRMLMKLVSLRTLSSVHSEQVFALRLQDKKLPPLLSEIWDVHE
Assay: LanthaScreen TR-FRET Liver X Receptor Coactivator Assay, LXR alpha-LBD (co-activator recruitment; IP and % Emax relative to T0901317)
Assay type: biochemical
Details: efficacy at max dose in relation to reference T0901317, LXR alpha-LBD; read-out: LXR alpha actiivty at max dose (%)
Quick rule for you: Emax under 30% gets met, anything else gets not met.

Before answering, review these 3 worked examples.
{"molecule": "CC(C)N(C)C(=O)c1ccc(N2CCC(CCCN(C)C(=O)[C@](O)(c3ccccc3)C(F)(F)F)CC2)cc1Cl", "measured.on": "GST tagged LXRalpha LBD (ligand binding domain) (Homo sapiens, UniProt Q13133)", "category": "met"}
{"molecule": "COc1cccc([C@@](O)(C(=O)N(C)CCCC2CCN(c3cc(Cl)c(C(=O)N(C)C)cn3)CC2)C(F)(F)F)c1", "measured.on": "GST tagged LXRalpha LBD (ligand binding domain) (Homo sapiens, UniProt Q13133)", "category": "met"}
{"molecule": "CNC(=O)c1ccc(N2CCC([C@H]3C[C@H]3CNC(=O)[C@](O)(c3ccccc3)C(F)(F)F)CC2)nc1Cl", "measured.on": "GST tagged LXRalpha LBD (ligand binding domain) (Homo sapiens, UniProt Q13133)", "category": "met"}

Does CNC(=O)c1ccc(N2CCC3(CC2)C[C@H]3CCN(C)C(=O)[C@](O)(c2ccccc2)C(F)(F)F)cc1Cl [Example 7-24] have Emax strictly under 30%?
met

Does the reported Emax of the following molecule sit strictly below 30%? CC(C)[C@]1(C(=O)N(C)CCCC2CCN(c3ccc(C(=O)N(C)C)c(Cl)n3)CC2)CCCO1
not met
